# Test system: SK-MEL-28 melanoma
# Test Details: NCI tumour cell line growth inhibition, 48 h
Observed Property: TGI

- COc1ccc(-c2cnnn2-c2nonc2-n2cccc2)cc1: > 100 µM
- Cc1ccc(OCCOCCOCCOCCOc2ccc(C)n(O)c2=S)c(=S)n1O: > 100 µM
- C=C1c2cc3c(cc2CC12Cc1cc4c(cc1C2=O)CCC4)CCC3 (stereo unspecified): > 100 µM
- COc1ccc(CC2c3c(cc(OC)c(OC)c3OC)CCN2C)cc1OC (stereo unspecified): > 100 µM
- CC1(C)C2CC(=O)C1(C)C(O)C2Br (stereo unspecified): > 100 µM
- CC(C)c1[nH]nc2c1N=C(c1ccccc1Cl)c1cc([N+](=O)[O-])ccc1N2: > 25 µM
- O=C(Cc1ccccc1)NN1C(=O)/C(=C\c2ccccc2)SC1=Nc1ccccc1: > 100 µM
- CC(=O)Oc1cc(C(F)(F)F)ccc1C(=O)OC1(C)OC(=O)c2ccc(C(F)(F)F)cc2O1 (stereo unspecified): > 100 µM
- CC1CC(O)C(=O)C(O[C@@H]2C[C@@H]3CC[C@@H]4[C@H](CC[C@]5(C)C(C6=CC(=O)OC6)CC[C@]45O)[C@@]3(C=O)C[C@H]2O)O1 (stereo partly specified): 0.329 µM
- c1ccc2c(c1)c1c(n2CCOCCN2CCOCC2)CCCC1: 52 µM
- O=C1CC(C(O)(C(F)(F)F)C(F)(F)Cl)CCC1C(O)(C(F)(F)F)C(F)(F)Cl (stereo unspecified): > 10 µM
- CCC(C)(O)c1cnc(CC(C)C)c(=O)n1O (stereo unspecified): > 100 µM
- O=C(/C=C/c1ccccc1)c1ccccc1: > 10 µM
- CCN(CC)CCCCCCNc1cccc2cc(Br)cnc12: 6.76 µM
- O=C(O)c1cc(-c2ccc3c(O)c(O)ccc3c2)ccc1O: > 75 µM
- S=C(/N=c1\sc(Nc2ccc(Cl)cc2)nc2sc3c(c12)CCN(N1CCc2c(sc4nc(Nc5ccc(Cl)cc5)s/c(=N\C(=S)Nc5ccc(Cl)cc5)c24)C1)C3)Nc1ccc(Cl)cc1: > 100 µM
- CSc1c(C#N)c(N)n(-c2ccc(C)cc2)c(=O)c1C#N: > 100 µM
- C[C@]12CC[C@@H]3c4ccc(O)cc4CC[C@H]3[C@@H]1C/C(=C\c1ccncc1)[C@@H]2O: > 100 µM
- CN(C(=O)c1ccc([N+](=O)[O-])cc1)c1ccccc1: > 100 µM
- CC1=C(C#N)C(=O)CC(c2ccc(Cl)cc2)N(C)N1 (stereo unspecified): > 100 µM
- CCOC(=O)C(Cl)(Cl)/S(=N\S(=O)(=O)c1ccccc1)NC(=O)c1ccccc1 (stereo unspecified): > 100 µM

----------
# Tested on: SK-MEL-5 melanoma
# Test Details: NCI tumour cell line growth inhibition, 48 h
TGI by entry:
Observed Property: TGI (µM)

- CCN(CC)CCCCCCNc1cccc2cc(Br)cnc12: 3.27
- Cc1cc2c([N+](=O)[O-])cc3c(c2o1)C(=O)C=CC3=O: 28.1
- COC(=O)c1c2c(cc3c1CCC3)CCC2: 29.5

----------
TGI by entry:
# Test system: HCT-15 colon
# Test Details: NCI tumour cell line growth inhibition, 48 h
Where a SMILES comes first, the peptide text is derived from it. Bridges are numbered along the chain shown (N, C = ends). [ ]: non-standard residue; d: D form. The star is where a group is joined. ξ: configuration not given here. X26 = O=C(/C=C/C=C/C=C/C=C/C=C/C(=O)*)NC1=C(O)CCC1=O; NMeA = CN[C@@H](C)C(=O)O; ξF = NC(Cc1ccccc1)C(=O)O; ξA = CC(N)C(=O)O
Observed Property: TGI

• CCC1=CC2CN3Cn4c(c(COCc5c6n(c7ccccc57)CN5CC7C=C(CC)C5C6(C(=O)OC)C7)c5ccccc54)C(C(=O)OC)(C2)C13 = > 100 µM
• C/C1=C\CC[C@@]2(C)O[C@@H]2C[C@@H](C2(C)CO2)CC/C(C)=C/CC1 (stereo partly drawn) = 25 µM
• CC1NC(=O)[C@H](C)N(C)C(=O)[C@@H]2CCCN2C(=O)[C@@H](NC(=O)C(Cc2ccccc2)NC(=O)/C=C/C=C/C=C/C=C/C=C/C(=O)NC2=C(O)CCC2=O)COC(=O)[C@@H]2CCCN2C1=O (stereo partly drawn) (X26-[ξF]SP[NMeA][ξA]P; ester 2-C) = > 100 µM

----------
# Test system: HL-60(TB) leukemia
# Test Details: NCI tumour cell line growth inhibition, 48 h
Observed Property: TGI (µM)

* Nc1ccc(-c2nc3ccccc3s2)cc1C(F)(F)F | 36.9
* CCN1CCCC(NCc2c3ccccc3c(CNC3CCCN(CC)C3)c3ccccc23)C1 (stereo not given) | 22.7

----------
# Tested on: KM12 colon
# Test Details: NCI tumour cell line growth inhibition, 48 h
Observed Property: TGI

- O=C(CC(=O)C1CCOC1=O)C(=O)Nc1cccc(Cl)c1 (stereo unspecified): > 100 µM
- C=CCNC(=S)N=Nc1c(O)[nH]c2ccc([N+](=O)[O-])cc12: > 100 µM
- COc1ccc(-c2nn(-c3cccc(Cl)c3)cc2-c2cc(-c3ccccc3)[nH]c(=O)c2C#N)cc1: > 50 µM
- O=C(c1ccco1)c1c(C(F)(F)F)n([O-])c2ccc(C(F)(F)F)cc2[n+]1=O: 0.973 µM
- Cc1cc(N/N=C/c2ccccn2)nc2ccccc12: 14.9 µM
- CCOC(CNCCC(=O)OC)OCC: > 10 µM
- CCC(C)(O)c1cnc(CC(C)C)c(=O)n1O (stereo unspecified): > 100 µM
- S=c1[nH]c2ccc(Br)cc2c(=S)s1: > 100 µM
- O=C1Nc2ccccc2/C1=C1\CCc2cc(O)ccc21: > 25 µM
- Cn1ccnc1C(O)(c1nccn1C)c1nccn1C: > 100 µM
- NC(=O)C(=O)CC(=O)c1ccccc1NC1=CC(=O)C(=O)c2ccccc21: > 100 µM

----------
TGI by entry:
# Test system: OVCAR-8 ovarian
# Test Details: NCI tumour cell line growth inhibition, 48 h
Observed Property: TGI

- CCc1ccc2c(c1)C(=O)c1c-2n(CCCN=[N+]=[N-])c(=O)c2cc([N+](=O)[O-])ccc12: > 50 µM
- O=C(O)c1cc(-c2ccc3c(O)c(O)ccc3c2)ccc1O: > 75 µM
- N#CCCN1C/C(=C/c2ccc(Br)cc2)C(=O)/C(=C/c2ccc(Br)cc2)C1: > 100 µM
- S=c1[nH]c2ccc(Br)cc2c(=S)s1: > 100 µM
- CC(=O)OCC1OC(n2cc(I)c(=O)[nH]c2=O)C(OC(C)=O)C(OC(C)=O)C1OC(C)=O (centres undefined): > 100 µM
- O=C1NCCS(=O)(=O)N[C@@H](CC2=CC=CCC2)C(=O)N2CCCC12 (some centres undefined): > 100 µM
- S=C(/N=c1\sc(Nc2ccc(Cl)cc2)nc2sc3c(c12)CCN(N1CCc2c(sc4nc(Nc5ccc(Cl)cc5)s/c(=N\C(=S)Nc5ccc(Cl)cc5)c24)C1)C3)Nc1ccc(Cl)cc1: > 100 µM
- O=C(c1ccco1)c1c(C(F)(F)F)n([O-])c2ccc(C(F)(F)F)cc2[n+]1=O: 1.15 µM
- CC(=O)Oc1cc(C(F)(F)F)ccc1C(=O)OC1(C)OC(=O)c2ccc(C(F)(F)F)cc2O1 (centres undefined): > 100 µM
- O=C(/C=C/c1ccccc1)c1ccccc1: > 10 µM
- CN(C(=O)c1ccc([N+](=O)[O-])cc1)c1ccccc1: > 100 µM
- CC1(C)CN=C(NN=C(/C=C/c2ccc(C(F)(F)F)cc2)/C=C/c2ccc(C(F)(F)F)cc2)NC1: 3.2 µM
- COC(=O)c1cc2c(cc1CC1Cc3cc4c(cc3C1)CCC4)CCC2: > 100 µM
- Cn1ccnc1C(O)(c1nccn1C)c1nccn1C: > 100 µM
- COc1cccc(/C=N/[N-]C(=O)c2ccncc2)c1[O-].COc1cccc(/C=N/[N-]C(=O)c2ccncc2)c1[O-].[O]=[U](=[O])([OH2+])[OH2+]: > 100 µM
- Nc1nc(N)c(N=O)c(Nc2ccc(Br)cc2)n1: > 100 µM
- C=C1c2cc3c(cc2CC12Cc1cc4c(cc1C2=O)CCC4)CCC3 (centres undefined): > 100 µM
- Cc1cc2c([N+](=O)[O-])cc3c(c2o1)C(=O)C=CC3=O: > 55.7 µM
- CCC1CN2CCc3cc(OC)c(OC)cc3C2CC1CC1c2cc(OC)c(OC)cc2CCN1C(=O)C1CCCN1 (centres undefined): > 100 µM

----------
# Test system: MDA-MB-435
# Test Details: NCI tumour cell line growth inhibition, 48 h; in the data active means GI50 below about 0.43 µM; inactive means the rest
Outcomes: TRUE = active, FALSE = inactive

* O=C1Nc2ccccc2/C1=C1\CCc2cc(O)ccc21 | FALSE
* CCc1ccc2c(c1)C(=O)c1c-2n(CCCN=[N+]=[N-])c(=O)c2cc([N+](=O)[O-])ccc12 | FALSE
* O=C(NCc1ccc(Cn2c(=O)sn(-c3ccccc3)c2=O)cc1)OCc1ccc2cccc(O)c2n1 | FALSE
* NNCCc1ccc(NC(=O)CCCc2ccc(C(=O)Nc3ccccc3N)cc2)cc1 | FALSE
* Cc1cc(Nc2nc(-c3cn(-c4ccc(Cl)cc4)nn3)nc3ccccc23)n[nH]1 | FALSE
* COc1cc2cc(Oc3ccc(NC(=O)c4cc(C(F)(F)F)cc(C(F)(F)F)c4)cc3)c(C)nc2cc1OC | FALSE
* CC(C)c1[nH]nc2c1N=C(c1ccccc1Cl)c1cc([N+](=O)[O-])ccc1N2 | FALSE
* COc1cc2c(Nc3cc(Cl)c(OC)c(Cl)c3)c(C#N)cnc2cc1OCCCN1CCN(C)CC1 | FALSE
* Nc1cc(Br)c(-c2nnc(CCC(=O)c3nc4ccccc4[nH]3)o2)c(Br)c1 | FALSE
* Cc1ccc(OCCOCCOCCOCCOc2ccc(C)n(O)c2=S)c(=S)n1O | TRUE
* CCCC/C(=C\C1=C(C)C(=O)C(OC)=C(OC)C1=O)C(=O)O | FALSE
* O=C(c1ccco1)c1c(C(F)(F)F)n([O-])c2ccc(C(F)(F)F)cc2[n+]1=O | FALSE
* COc1ccc(/C(C)=C(\c2ccc(OCCN3CCCCCC3)cc2)c2ccc(OC(=O)C3CCCCC3)cc2)cc1 | FALSE
* COc1ccc(-c2nc(-c3cc(OC)cc(OC)c3)[nH]c2-c2ccc(OC)cc2)cc1 | FALSE
* ClCCN(CCCl)c1ccc(CNc2ccccc2)cc1 | FALSE
